System: Fibroblast
Assay: Incucyte cell viability with human fibroblast; also: unitless GR value; below 1 slowed growth and below 0 cell loss
Assay type: toxicity, cell-based
Details: 0 h, 10 µM, compound concentration 10 uM, replicate number 1
Reported Growth Rate values are given for each entry in this list.
reportedMetric: Growth Rate

> print(dat)
                                   compound  measuredvalue
1  Cc1cc(Cn2c(N3CC4(CNC4)C3)nc3cc(Cl)cc(N4CCN(C)CC4)c32)cc(C)c1F             -1
2            O=C(Nc1ccc(Cl)nc1)c1ccc(Cl)cc1          -0.21
3  Cc1c(CN2CCC3(CC2)CN(c2ncnc4sc(CC(F)(F)F)cc24)C3)ccc2c1cc(C#N)n2CC(N)=O             -1
4  COc1ccc(OC)c(-c2ccc(NC(=O)c3ccncc3F)cc2)c1          -0.06
5  Cc1[nH]c2c(N3CCCCC3)c(-c3ccccc3)nn2c(=O)c1-c1ccc(O)cc1          -0.08
6  Cc1cc(C)nc(Nc2ncc(C(=O)NCCc3c(C)[nH]c4ccccc34)cn2)c1.Cl             -1
7    Oc1c(CN2CCCC2)cc(COCc2ccccc2)c2cccnc12           0.87
8  C=C(F)C(=O)N1CCN(c2nc(OC[C@@H]3CCCN3C)nc3c2CCN(c2cccc4cccc(Cl)c24)C3)C[C@@H]1CC#N [ADAGRASIB]             -1
9  CN(C)C(=O)c1cc2cnc(Nc3ccc(N4CCN(CCCCNC(=O)COc5cccc6c5C(=O)N(C5CCC(=O)NC5=O)C6=O)CC4)cn3)nc2n1C1CCCC1 (centres undefined)             -1

Hey, just so you know, these numbers are from ChEMBL document CHEMBL5303304.
